Recorded values, source patent US20250026827A1.

system: T1, human SIRPβ1 isoform 1 on cells (human, UniProt O00241 30-398)
T1 construct: On CHO cells (low level), on BWZ/BW5147.G.1.4 cells (reporter cells co-express human DAP12) or on primary human myeloid cells; also called huSIRPβ1; BWZ-huSIRPβ1
T1 sequence (O00241 30-398): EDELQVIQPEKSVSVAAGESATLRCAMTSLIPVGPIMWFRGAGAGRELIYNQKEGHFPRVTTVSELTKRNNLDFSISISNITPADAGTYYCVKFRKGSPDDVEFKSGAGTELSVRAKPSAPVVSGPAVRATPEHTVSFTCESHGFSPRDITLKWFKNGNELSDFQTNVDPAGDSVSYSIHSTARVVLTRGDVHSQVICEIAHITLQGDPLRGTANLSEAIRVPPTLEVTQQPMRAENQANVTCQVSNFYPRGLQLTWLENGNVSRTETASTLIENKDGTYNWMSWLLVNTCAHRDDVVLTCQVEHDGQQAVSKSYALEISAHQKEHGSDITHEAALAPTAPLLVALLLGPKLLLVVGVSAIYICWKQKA
experimental.details: flow cytometry;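 further: antibody binding to cells detected with a PE-labelled secondary antibody, given as mean fluorescence intensity relative to background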
Reported FOB values for a set of binders
Give a bare numeral; the unit fold over background is implied.

SB-2 (antibody, V domains shown, IgG; also called SB-2 (p)) VH: QVQLVESGGGVVQPGRSLRLSCAASGFTFSSYGMNWVRQAPGKGLEWVAVIWYDGSNKYYADSVKGRFTISRDNSKNTLYLQMNSLRAEDTAVYYCARDQTAAAAIWGMDVWGQGTTVTVSS VL: EIVLTQSPGTLSLSPGERATLSCRASQSVSSSYLAWYQQKPGQAPRLLIYGASSRATGIPDRFSGSGSGTDFTLTISRLEPEDFAVYYCQQSSSHPFTFGGGTKVEIK :: 2

Next:
## Input Dear colleague, please send me the reported FOB for SB-2-9 (antibody, V domains shown, IgG) VH: QVQLVESGGGVVQPGRSLRLSCAASGFTFKTYGMHWVRQAPGKGLEWVAHIWYEGSNKVYADSVKGRFTISRDNSKNTLYLQMNSLRAEDTAVYYCARDQTAAAAIWGMDVWGQGTTVTVSS VL: EVVLTQSPGTLSLSPGERATLSCRASQSVSSSYLAWYQQKPGQAPRLLIYGASSRATGIPDRFSGSGSGTDFTLTISRLEPEDFAVYYCQQSSSHPFTFGGGTKVEIK when you can.
## Output 4
